tested on: 2Sp-muMax20 (muMax20 with two 2,6-bis(methyl)pyridine Cys staples); assay: PBM 8-mer E-score (E-score (rank enrichment, -0.5 to 0.5)); higher = stronger preferential binding
Over roughly 33,000 sequences, “E-score (rank enrichment, -0.5 to 0.5)” has its median near -0.0043; the highest 2% begin near 0.24. The sample holds the highest values, similar sequences and a random draw of the others, so the mix is not that of the screen.
Mark class 0 for PBM 8-mer E-score values under 0.1, and class 1 for everything at or above.

Please tell me: is the sequence `CATGAGCA` at or over 0.1 in terms of PBM 8-mer E-score?
class 0

Form field: PBM 8-mer E-score at least 0.1? Entry: `AATTAATA`
class 1

Hello, I need to know if `AAACATGA` has measured PBM 8-mer E-score not below 0.1. Thanks!
class 0

Hello, I need to know if `AGCGCTAA` has measured PBM 8-mer E-score not below 0.1. Thanks!
class 0

Quick check, PBM 8-mer E-score >= 0.1? `AACATTAC`
class 1

PBM 8-mer E-score >= 0.1 for `GTATTATA` ?
class 1

Reported PBM 8-mer E-score at or above 0.1? `CTAGAATA`
class 1

Check this sequence for PBM 8-mer E-score at or above 0.1: `AGTTAATA`
class 1

Can `AGACTTAG` be said to have PBM 8-mer E-score at or above 0.1?
class 0

// inclusive: PBM 8-mer E-score at least 0.1? input: `GTGGGCCA`
class 0

Decide: is the reported value of PBM 8-mer E-score for `AACCATTG` equal to or greater than 0.1?
class 0

Evaluate `ACCCCTTC` : PBM 8-mer E-score at minimum 0.1?
class 1

Answer whether PBM 8-mer E-score of `ATAAATAC` is greater than or equal to 0.1.
class 1

Could you tell me if the measured PBM 8-mer E-score of `GTGTGATA` reaches 0.1 or more?
class 1

Hi, just wondering whether `CTATTATA` shows PBM 8-mer E-score of 0.1 or higher.
class 0

Test whether the sequence `AATCAGCC` records PBM 8-mer E-score of 0.1 or higher.
class 0

Record `CTAAATAA` ; criterion: PBM 8-mer E-score no lower than 0.1. Met?
class 1

Quick check, PBM 8-mer E-score >= 0.1? `AGGGCGGA`
class 0

Does `ACGTGATA` have a reported PBM 8-mer E-score of at least 0.1?
class 1

Identify whether the reported PBM 8-mer E-score of the following sequence is 0.1 or greater: `AAACATGG`
class 1

Answer whether PBM 8-mer E-score of `ACGTGATC` is greater than or equal to 0.1.
class 1

Threshold query (PBM 8-mer E-score >= 0.1) on `AAACTGGC`
class 0

Decide: PBM 8-mer E-score of `GTCTCGTA` >= 0.1?
class 0

Decide: PBM 8-mer E-score of `CCGCATCG` >= 0.1?
class 0

Has `ATAAATAA` a recorded PBM 8-mer E-score greater than or equal to 0.1?
class 1

Is the recorded value of PBM 8-mer E-score equal to or greater than 0.1 for this sequence? `GCAACGTA`
class 0

Is PBM 8-mer E-score for `TTAAATAA` at or above 0.1?
class 1

Is it the case that `GATGCAGC` has PBM 8-mer E-score reaching or exceeding 0.1?
class 0

Would you say `CTCACGTC` shows PBM 8-mer E-score at minimum 0.1?
class 0

Does `CTAAATAC` have a reported PBM 8-mer E-score of at least 0.1?
class 1

Does PBM 8-mer E-score meet or surpass 0.1 for `CTTTAATA` ?
class 1

Given `ATATTATC` , state whether its PBM 8-mer E-score is at least 0.1.
class 0

// inclusive: PBM 8-mer E-score at least 0.1? input: `AAGGCATT`
class 0

Does `CACATTAG` have a reported PBM 8-mer E-score of at least 0.1?
class 0

Decide: is the reported value of PBM 8-mer E-score for `AACCATTA` equal to or greater than 0.1?
class 1

I'd appreciate it if you could say whether `ATATTACA` has PBM 8-mer E-score at least equal to 0.1.
class 1

Confirm if PBM 8-mer E-score reported for the sequence `GTTTAATA` is 0.1 or above.
class 1

Check the entry `CTGCAACC` : does PBM 8-mer E-score equal or exceed 0.1?
class 0

Determine whether measured PBM 8-mer E-score meets or exceeds 0.1 for `ATAGAATA`
class 1

Item `GCCCCCCC` with PBM 8-mer E-score of 0.1 or above?
class 0

Could you tell me if the measured PBM 8-mer E-score of `ACTGCTTC` reaches 0.1 or more?
class 0

Decide: PBM 8-mer E-score of `ACACAATA` >= 0.1?
class 1

Record `AATTCCCA` ; criterion: PBM 8-mer E-score no lower than 0.1. Met?
class 1

Does the reported PBM 8-mer E-score for `AAATAAAA` fall at or above the 0.1 mark?
class 1

API: above_or_equal(metric=PBM 8-mer E-score, cutoff=0.1) for item `TATCAGGA`
class 0

Is reported PBM 8-mer E-score greater than or equal to 0.1 here: `AGACAATA`
class 1

Does the reported PBM 8-mer E-score for `AATTTTCA` fall at or above the 0.1 mark?
class 1

# bool: PBM 8-mer E-score of `AGGGCGGG` >= 0.1
class 1

# check: PBM 8-mer E-score of `GTATTAAA` is greater than or equal to 0.1
class 1

Is PBM 8-mer E-score at least 0.1? Consider `AATATGGC`
class 1

hey, is PBM 8-mer E-score for this one >= 0.1? `ATATTAGC`
class 1

Does PBM 8-mer E-score meet or surpass 0.1 for `ATATTATG` ?
class 1

Confirm if PBM 8-mer E-score reported for the sequence `GACTATAA` is 0.1 or above.
class 0

PBM 8-mer E-score >= 0.1 for `ACACATGA` ?
class 0

Is the recorded value of PBM 8-mer E-score equal to or greater than 0.1 for this sequence? `GTAAATAC`
class 0

Is reported PBM 8-mer E-score greater than or equal to 0.1 here: `GTAGCTTA`
class 1

Item `ATATTAGA` with PBM 8-mer E-score of 0.1 or above?
class 1

Quick check: does `CCCAACTA` have PBM 8-mer E-score greater than or equal to 0.1?
class 1

Record `AACTCATG` ; criterion: PBM 8-mer E-score no lower than 0.1. Met?
class 1

Given the entry `ACACCGAG` , answer whether its PBM 8-mer E-score meets or surpasses 0.1.
class 0

Decide: PBM 8-mer E-score of `AATCATGA` >= 0.1?
class 1

Has `GACCCATC` a recorded PBM 8-mer E-score greater than or equal to 0.1?
class 0

Form field: PBM 8-mer E-score at least 0.1? Entry: `AGGGCGGC`
class 0

Decide: is the reported value of PBM 8-mer E-score for `ATAAATAT` equal to or greater than 0.1?
class 1

# bool: PBM 8-mer E-score of `GCACAATA` >= 0.1
class 0

Is the recorded value of PBM 8-mer E-score equal to or greater than 0.1 for this sequence? `CGGGCCCG`
class 0

API: above_or_equal(metric=PBM 8-mer E-score, cutoff=0.1) for item `ACACAAAC`
class 1

# bool: PBM 8-mer E-score of `CACATTAC` >= 0.1
class 1

Textbook exercise: given the entry `AATCAGCG` , state whether its PBM 8-mer E-score is greater than or equal to 0.1.
class 0

Does the reported PBM 8-mer E-score for `AATCATGT` fall at or above the 0.1 mark?
class 1
